src = PubChem BioAssay (NCI)

tested on: SN12C renal; assay: NCI-60 one-dose screen, 48 h (100 = growth as untreated, 0 = no growth, -100 = all killed); conditions: 10 µM unless noted
About 83,000 compounds went through this panel and 20% of them were active in at least one assay; those are over-represented in the sample as a whole. The source made the active and inactive calls. How the source made its calls: active means growth percent below 10; inactive means the rest.
Assay metric: growth

compound=c1ccc(-c2ccc(-c3nc4ccccc4[nH]3)cc2)cc1 system="SN12C renal" assay_metric=growth value="92.9% (inactive)"
compound=COc1cc(/C=C2\CN(C)C/C(=C\c3cc(CN4CCCCC4)c(O)c(OC)c3)C2=O)cc(CN2CCCCC2)c1O system="SN12C renal" assay_metric=growth value="38.2% (inactive)"
compound="COc1ccc(-n2c(C(O)c3ccccc3)n[nH]c2=S)cc1 (configuration not stated)" system="SN12C renal" assay_metric=growth value="88.2% (inactive)"
compound=O=c1c2cc(F)ccc2sc2c(NCCN3CCCC3)nc3ccccc3c12 system="SN12C renal" assay_metric=growth value="70.4% (inactive)"
compound=CCCCCCc1cc2cc(-c3csc(/C=C/c4ccccc4)n3)c(=O)oc2cc1O system="SN12C renal" assay_metric=growth value="34.9% (inactive)"
compound=CCOC(=O)c1cc2c(n1Cc1ccccc1OC)-c1oncc1CCC2 system="SN12C renal" assay_metric=growth value="53.3% (inactive)"
compound=CCOC(=O)c1ccc2[nH]c(-c3ccccc3)cc(=O)c2c1 system="SN12C renal" assay_metric=growth value="98.2% (inactive)"
compound=O=C1Nc2ccccc2/C1=C/c1cccs1 system="SN12C renal" assay_metric=growth value="89.9% (inactive)"
compound=CCC(C)(C)C(=O)O[C@H]1C[C@@H](C)C=C2C=C[C@H](C)[C@H](CC[C@@H]3CC=CC(=O)O3)[C@H]21 system="SN12C renal" assay_metric=growth value="62.8% (inactive)"
compound="COCCN(C(=O)Cc1cccs1)C(C(=O)NCc1ccc(OC)cc1)c1ccc(C(C)C)cc1 (configuration not stated)" system="SN12C renal" assay_metric=growth value="89.9% (inactive)"
compound=Cc1cc(Br)c(N)c(Br)c1 system="SN12C renal" assay_metric=growth value="109% (inactive)"
compound=Cc1ccc(CN2CCC(C(=O)Nc3ccc(-c4cc5ccccc5[nH]4)cc3)CC2)o1 system="SN12C renal" assay_metric=growth value="60.7% (inactive)"
compound=CC(=O)O[C@@H]1/C=C/C(=O)N[C@@H](C)CCC/C=C/[C@@H]2CCC[C@H]21 system="SN12C renal" assay_metric=growth value="102% (inactive)"
compound=O=c1c2cc(F)ccc2sc2c(Nc3ccncc3)nc3ccccc3c12 system="SN12C renal" assay_metric=growth value="90% (inactive)"
compound="CCCCC1CCc2cccc3c(SCC(=O)N(C)c4ccc(Cl)cc4)cc[n+]1c23 (configuration not stated)" system="SN12C renal" assay_metric=growth value="104% (inactive)"
compound=O=C(NC(=S)Nc1cccc(NC(=S)NC(=O)c2ccccc2)c1)c1ccccc1 system="SN12C renal" assay_metric=growth value="61.9% (inactive)"
compound=COC(=O)[C@@H]1CCCN1C(=O)[C@H]1CCCN1C(=O)[C@@H](Cc1c[nH]c2ccccc12)NC(=S)Nc1cc(C(F)(F)F)cc(C(F)(F)F)c1 system="SN12C renal" assay_metric=growth value="44.4% (inactive)"
compound=Cc1ccc(Cc2cnc(NC(=O)CN3C(=O)/C(=C\c4ccccc4)SC3=S)s2)cc1 system="SN12C renal" assay_metric=growth value="96.6% (inactive)"
compound=COC(=O)c1c2c(c(C)[n+]([O-])c1C)C(=O)C(NCc1ccc(Br)cc1)=CC2=O system="SN12C renal" assay_metric=growth value="4.82% (active)"
compound=COc1ccccc1C(=O)/C=C/c1ccccc1 system="SN12C renal" assay_metric=growth value="83.5% (inactive)"
compound=N#C/C(=C\c1c(-c2ccccc2)[nH]c2ccccc12)C(=O)c1ccccc1 system="SN12C renal" assay_metric=growth value="54.4% (inactive)"
compound=Nc1nc2c(ncn2[C@@H]2O[C@H](CS)[C@@H](O)[C@H]2O)c(=O)[nH]1 system="SN12C renal" assay_metric=growth value="97.2% (inactive)"
compound=O=c1c(-c2nc3ccccc3[nH]2)cc2ccccc2n1Cc1cn(Cc2ccc(F)cc2)nn1 system="SN12C renal" assay_metric=growth value="14.2% (inactive)"
compound="OCCNc1nc(Nc2ccc(C3=NN(c4cc(Cl)cc(Cl)c4)C(c4ccc(C(F)(F)F)cc4)C3)cc2)nc(N2CCOCC2)n1 (configuration not stated)" system="SN12C renal" assay_metric=growth value="74.8% (inactive)"
compound=Cc1ccc2cccc(Oc3ccc(Nc4ncnc5onc(-c6ccccc6)c45)cc3)c2n1 system="SN12C renal" assay_metric=growth value="83.9% (inactive)"
compound="O=C(CN1C=NC2C(N3CCOCC3)=NC=NC21)c1cccc2ccccc12 (configuration not stated)" system="SN12C renal" assay_metric=growth value="95.5% (inactive)"
compound=O=c1oc2ccc(F)cc2c(=O)n1-c1ccc(I)cc1F system="SN12C renal" assay_metric=growth value="-3.72% (active)"
compound=COc1cc(/C=C2\CN(C)C/C(=C\c3cc(CN4CCOCC4)c(O)c(OC)c3)C2=O)cc(CN2CCOCC2)c1O system="SN12C renal" assay_metric=growth value="35% (inactive)"
compound=COc1cc(-c2c3c(cn2S(=O)(=O)c2ccccc2)-c2nc(N)sc2CC3)cc(OC)c1OC system="SN12C renal" assay_metric=growth value="54.1% (inactive)"
compound="COc1cc(C(C)n2cc(-c3ccccc3)nn2)ccc1OC1CCCCC1 (configuration not stated)" system="SN12C renal" assay_metric=growth value="67.7% (inactive)"
compound="NC1C(N)C(N)C1N (configuration not stated)" system="SN12C renal" assay_metric=growth value="96.8% (inactive)"
compound=Nc1nonc1-n1nncc1-c1cccnc1 system="SN12C renal" assay_metric=growth value="117% (inactive)"
compound=Cc1cccc2c(=O)c3c(sc12)c(NCCN)nc1ccccc13 system="SN12C renal" assay_metric=growth value="-75.8% (active)"
compound=C#CCn1cc(C=C2C(=O)N(C)C(=O)N(C)C2=O)c2cc(Cl)ccc21 system="SN12C renal" assay_metric=growth value="101% (inactive)"
compound="O=C(NCc1ccco1)C1CN(c2ccc(Cl)cc2)N(c2ccc(Cl)cc2)C1=O (configuration not stated)" system="SN12C renal" assay_metric=growth value="62.9% (inactive)"
compound=O=c1oc2ccc(F)cc2c(=O)n1-c1ccc(Cl)cc1F system="SN12C renal" assay_metric=growth value="1.59% (active)"
compound=Cc1ccc2c(n1)C(=O)C(Oc1ccc(Br)cc1)=CC2=O system="SN12C renal" assay_metric=growth value="93.5% (inactive)"
compound="COc1ccc(C2Nc3ncnc(N)c3N=C3c4ccccc4C(=O)C32)cc1 (configuration not stated)" system="SN12C renal" assay_metric=growth value="140% (inactive)"
compound=Cc1sc2ncn(CC(=O)Nc3ccc(S(N)(=O)=O)cc3)c(=O)c2c1C system="SN12C renal" assay_metric=growth value="98.6% (inactive)"
compound="CN1C(=O)N(C)C2C1NN=c1s/c(=C\\c3ccc([N+](=O)[O-])cc3)c(=O)n12 (configuration not stated)" system="SN12C renal" assay_metric=growth value="88.7% (inactive)"
compound=NCCCNc1nc2ccccc2c2c(=O)c3cc(F)ccc3sc12 system="SN12C renal" assay_metric=growth value="41.7% (inactive)"
compound="S=C1NC2(c3ccccc3)CCC(=S)N2c2ccccc21 (configuration not stated)" system="SN12C renal" assay_metric=growth value="96.8% (inactive)"
